All values here come from patent US20250154144A1.

- target system: FLT3 N841I (Homo sapiens, UniProt P36888, N841I)
- Sequence (P36888 27-993 N841I): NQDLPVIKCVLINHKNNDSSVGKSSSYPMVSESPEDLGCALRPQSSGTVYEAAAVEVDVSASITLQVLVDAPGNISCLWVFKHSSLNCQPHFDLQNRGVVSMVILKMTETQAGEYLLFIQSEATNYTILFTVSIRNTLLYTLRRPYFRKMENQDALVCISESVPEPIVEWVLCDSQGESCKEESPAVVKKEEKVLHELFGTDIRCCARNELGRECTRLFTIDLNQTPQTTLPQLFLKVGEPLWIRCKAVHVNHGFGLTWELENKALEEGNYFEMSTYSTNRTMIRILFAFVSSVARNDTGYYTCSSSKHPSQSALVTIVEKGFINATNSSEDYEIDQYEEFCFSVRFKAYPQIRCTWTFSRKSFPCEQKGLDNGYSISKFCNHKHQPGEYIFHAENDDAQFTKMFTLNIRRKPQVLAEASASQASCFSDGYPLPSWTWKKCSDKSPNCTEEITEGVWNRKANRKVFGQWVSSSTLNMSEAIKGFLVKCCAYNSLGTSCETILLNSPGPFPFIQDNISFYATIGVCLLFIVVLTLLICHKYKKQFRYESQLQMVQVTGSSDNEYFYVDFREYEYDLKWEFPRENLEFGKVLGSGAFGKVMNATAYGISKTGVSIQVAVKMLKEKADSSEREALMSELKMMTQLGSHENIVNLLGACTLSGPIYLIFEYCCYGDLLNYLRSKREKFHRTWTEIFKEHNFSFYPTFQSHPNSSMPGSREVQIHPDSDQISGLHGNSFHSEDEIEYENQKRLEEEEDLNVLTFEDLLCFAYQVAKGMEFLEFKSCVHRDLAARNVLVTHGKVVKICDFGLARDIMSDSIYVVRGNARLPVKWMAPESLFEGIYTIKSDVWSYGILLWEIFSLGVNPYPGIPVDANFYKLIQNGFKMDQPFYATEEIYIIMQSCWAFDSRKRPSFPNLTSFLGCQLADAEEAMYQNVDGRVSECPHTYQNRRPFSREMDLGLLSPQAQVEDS
- assay comment: DiscoverX KINOMEscan competition binding, FLT3 N841I
pKd: −log10 of the molar value.
measured property: pKd

Solved cases below.
compound | target system | pKd
COc1cc2ncc(-c3cncc(N[C@H]4CNCC[C@@H]4F)n3)n2nc1C1CC1 | FLT3 N841I (Homo sapiens, UniProt P36888, N841I) | 9.29
COc1cc2ncc(-c3cncc(N[C@H]4CNC[C@@H]4F)n3)n2nc1C1CC1 | FLT3 N841I (Homo sapiens, UniProt P36888, N841I) | 8.25

P. F[C@H]1CCNC[C@@H]1Nc1cncc(-c2cnc3cc(OC4CC4)ccn23)n1
Q. COc1cc2ncc(-c3ccnc(N[C@@H]4CCCNC4)n3)n2cc1C(C)(C)O
Query: # returns the entry with the larger pKd; inputs P and Q Returns: label corresponding to the selected item.
Reply: Q
(Q: 9.01, P: 8.33)

A. COc1cc2ncc(-c3ccnc(N[C@H]4CNC[C@@H]4F)n3)n2nc1C1CC1
B. CC(O)(c1cn2c(-c3ccnc(N[C@H]4CNCC[C@@H]4F)n3)cnc2cn1)C(F)(F)F (single isomer, unassigned)
Query: Form: Entry with minimum pKd (choose one): A / B Returns: label corresponding to the selected item.
Reply: B
(B: 8.13, A: 9.21)

---

Entries and their Excess HSA Score values follow.
- Test system: THP1 cells
- assay comment: Combination drug screening, Cell Titer Glo, 10 × 10 matrix, THP1 cells
- Assay type: cell-based
- measurement setup: THP1 cells, 10 × 10; combination with AMG-232
Please give the numeric answer without any surrounding text.

compound | observed measurement
COc1cc2ncc(-c3ccnc(N[C@@H]4CCCNC4)n3)n2nc1C1CC1 | 252
FC(F)COc1ccn2c(-c3ccnc(N[C@H]4CNCC[C@@H]4F)n3)cnc2c1 | −215.5
COc1cc2ncc(-c3cncc(N[C@H]4CNCC[C@@H]4F)n3)n2nc1C1CC1 | 144.3
COc1cc2ncc(-c3ccnc(N[C@H]4CNCC[C@@H]4F)n3)n2cc1C(C)(C)O | 138.2
F[C@H]1CCNC[C@@H]1Nc1cncc(-c2cnc3cc(OC4CC4)ccn23)n1 | −0.2304

Noted for "COc1ccn2c(-c3ccnc(N[C@H]4CNC[C@@H]4F)n3)cnc2c1" : its Excess HSA Score reads 401.8

Noted for CC(O)(c1cn2c(-c3ccnc(N[C@H]4CNCC[C@@H]4F)n3)cnc2cn1)C(F)(F)F (single isomer, unassigned) : its Excess HSA Score reads 364

---

- target system: IRAK4 (Homo sapiens)
- assay comment: RBC HotSpot Kinase Assay, IRAK4
- measurement setup: IRAK4 IC50
measured property: IC50 (nM)

a. CC(C)(O)c1ccc2ncc(-c3cncc(N[C@H]4CNC[C@@H]4F)n3)n2c1 [Compound 16]
b. FC(F)COc1ccn2c(-c3cncc(N[C@H]4CNC[C@@H]4F)n3)cnc2c1 [Compound 7]
Query: # returns the entry with the larger IC50; inputs a and b Returns: label corresponding to the selected item.
Reply: a

A. COc1cc2ncc(-c3ccnc(N[C@H]4CNCC[C@@H]4F)n3)n2cc1C(C)(C)O [Compound 45]
B. COc1cc2ncc(-c3cncc(N[C@@H]4CCCNC4)n3)n2cc1C(C)(C)O [Compound 20]
C. FC(F)COc1ccn2c(-c3ccnc(N[C@H]4CNCC[C@@H]4F)n3)cnc2c1 [Compound 33]
Query: Task for the reader: rank each entry by its IC50, from the minimum upward. Quick reminder: the answer is the labels in the order asked.
Reply: A, B, C

---

- target system: IRAK4 (Homo sapiens)
- assay comment: Reaction Biology NanoBRET target engagement assay in HEK-293 cells, IRAK4
- measurement setup: NanoBRET IRAK4 IC50, HEK-293 cells
pIC50: −log10 of the molar value.
measured property: pIC50

I. FC(F)Oc1ccn2c(-c3cncc(N[C@H]4CNCC[C@@H]4F)n3)cnc2c1
II. CC(C)(O)c1ccc2ncc(-c3ccnc(N[C@H]4CNCC[C@@H]4F)n3)n2c1
III. CC(O)(c1cn2c(-c3ccnc(N[C@H]4CNC[C@@H]4F)n3)cnc2cn1)C(F)(F)F (single isomer, unassigned)
Query: Falling order of pIC50, please. Quick reminder: the answer is the labels in the order asked.
Reply: II, I, III

---

- target system: IRAK4 (Homo sapiens, UniProt Q9NWZ3)
- Sequence (Q9NWZ3 1-460): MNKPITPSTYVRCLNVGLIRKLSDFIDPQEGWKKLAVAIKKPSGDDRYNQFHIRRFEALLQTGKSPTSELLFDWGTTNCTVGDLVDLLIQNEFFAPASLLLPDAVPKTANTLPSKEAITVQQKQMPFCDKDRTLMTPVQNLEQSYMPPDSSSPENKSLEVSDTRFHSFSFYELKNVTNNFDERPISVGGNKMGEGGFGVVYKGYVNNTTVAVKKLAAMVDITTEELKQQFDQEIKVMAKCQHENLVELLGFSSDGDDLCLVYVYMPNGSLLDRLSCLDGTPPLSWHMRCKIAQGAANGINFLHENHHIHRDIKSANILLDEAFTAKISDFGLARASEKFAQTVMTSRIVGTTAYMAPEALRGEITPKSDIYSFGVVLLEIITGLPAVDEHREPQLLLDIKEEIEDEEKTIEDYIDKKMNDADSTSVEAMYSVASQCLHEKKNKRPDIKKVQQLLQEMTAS
- assay comment: RBC HotSpot Kinase Assay, IRAK4
- measurement setup: IRAK4 IC50
measured property: IC50 (nM)

compound | IC50 (nM)
O=C1CCCN1c1cn2c(-c3ccnc(N[C@H]4CNCC[C@@H]4F)n3)cnc2cn1 | 18
CC(O)(c1cn2c(-c3cncc(N[C@H]4CNC[C@@H]4F)n3)cnc2cn1)C(F)(F)F (single isomer, unassigned) [Compound 75] | 40
FC(F)Oc1ccn2c(-c3cncc(N[C@H]4CNC[C@@H]4F)n3)cnc2c1 | 21
COc1cc2ncc(-c3cncc(N[C@H]4CNC[C@@H]4F)n3)n2nc1C(C)(O)C(F)(F)F (single isomer, unassigned) [Compound 81] | 2540
F[C@H]1CNC[C@@H]1Nc1nccc(-c2cnc3cc(OC4CC4)ccn23)n1 | 1

P. CC(O)(c1cn2c(-c3cncc(N[C@H]4CNCC[C@@H]4F)n3)cnc2cn1)C(F)(F)F (single isomer, unassigned) [Compound 76]
Q. FC(F)COc1ccn2c(-c3cncc(N[C@H]4CNCC[C@@H]4F)n3)cnc2c1
R. CC(O)(c1cn2c(-c3ccnc(N[C@@H]4CCCNC4)n3)cnc2cn1)C(F)(F)F (single isomer, unassigned) [Compound 68]
Query: Place the items in sequence of falling IC50. Quick reminder: the answer is the labels in the order asked.
Reply: R, P, Q
(R: 4 nM, P: 2 nM, Q: 1 nM)

a. CC(C)Oc1ccn2c(-c3ccnc(N[C@@H]4CCCNC4)n3)cnc2c1
b. CC(C)(O)c1ccc2ncc(-c3cncc(N[C@@H]4CCCNC4)n3)n2c1
Query: # returns the entry with the larger IC50; inputs a and b Returns: label corresponding to the selected item.
Reply: b
(b: 7 nM, a: 2 nM)
